# target-system: hMCD (malonyl-CoA decarboxylase) (Homo sapiens, UniProt O95822)
# Sequence (O95822 40-493): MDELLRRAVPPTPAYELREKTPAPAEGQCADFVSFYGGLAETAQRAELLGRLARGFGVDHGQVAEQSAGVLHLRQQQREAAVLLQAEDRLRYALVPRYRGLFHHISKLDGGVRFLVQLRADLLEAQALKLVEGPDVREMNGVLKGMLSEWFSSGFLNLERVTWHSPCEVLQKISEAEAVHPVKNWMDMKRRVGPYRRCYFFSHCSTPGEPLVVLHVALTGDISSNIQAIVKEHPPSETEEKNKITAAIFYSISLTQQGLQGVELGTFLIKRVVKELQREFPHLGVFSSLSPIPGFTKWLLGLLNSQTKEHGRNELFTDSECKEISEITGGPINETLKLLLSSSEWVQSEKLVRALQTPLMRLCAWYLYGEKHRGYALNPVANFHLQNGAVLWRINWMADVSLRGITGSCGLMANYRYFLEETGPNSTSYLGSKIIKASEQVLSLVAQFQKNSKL
# assay-details: In Vitro MCD Inhibitory Assay
# Format: biochemical
# experimental-context: Table 1, MCD inhibition
Output schema: class label derived from Ki. Mapping: bottom range (below 6 nM), center range (6 nM to below 40 nM), top range (40 nM or more)

Please indicate the class for CCCCOc1ccc(NC(=NC#N)Nc2ccc3nc(S)sc3c2)cc1 based on its Ki.
center range

Please indicate the class for CCCCN(/C(=N/C#N)Nc1cccnc1)c1ccc2nc(S)sc2c1 based on its Ki.
top range

Please indicate the class for CCCN(C(=NC#N)Nc1ccc(OC(F)(F)F)cc1)c1ccc2nc(S)sc2c1 based on its Ki.
top range

Please indicate the class for CC(C)CN(C(=NC#N)Nc1ccc(C(=O)O)cc1)c1ccc2nc(S)sc2c1 based on its Ki.
bottom range

Please indicate the class for CCN(C(=NC#N)Nc1ccc(C(=O)NCC(C)C)cc1)c1ccc2nc(S)sc2c1 based on its Ki.
center range

Please indicate the class for CCN(/C(=N/C#N)Nc1ccc(C(F)(F)F)cc1)c1ccc2nc(S)sc2c1 based on its Ki.
bottom range

Please indicate the class for CCCN(/C(=N/C#N)Nc1ccccc1)c1ccc2nc(S)sc2c1 [CBM-000302051] based on its Ki.
bottom range

Please indicate the class for COc1ccc(NC(=NC#N)N(CC(C)C)c2ccc3nc(S)sc3c2)cc1 based on its Ki.
center range

====

# target-system: hMCD (malonyl-CoA decarboxylase) (Homo sapiens, UniProt O95822)
# assay-details: In Vitro MCD Inhibitory Assay
# Type: biochemical
# experimental-context: Table 2, MCD inhibition
# Procedure: In Vitro MCD Inhibitory Assay: The conversion of […] was assayed using a modified protocol as previously described by Kim, Y. S. and Kolattukudy, P. E. in 1978 (Arch. Biochem. Biophys 190:585 (1978)). As shown in eq. […] The accumulation of NADH can be continuously followed by monitoring the increase of fluorescence emission at 460 nm on a fluorescence plate reader. The fluorescence plate reader was calibrated using the authentic acetyl-CoA from Sigma. […]
Give Ki for every item shown.
Please reply with the bare figure in nM and do not write the unit itself.

Looking for the measured Ki of CCCN(C(=NC#N)Nc1ccc(C(F)(F)F)cc1)c1ccc2nc(S)sc2c1 , can you help?
3.5

Looking for the measured Ki of CCCCNC(=O)c1ccc(NC(=NC#N)N(CC)c2ccc3nc(S)sc3c2)cc1 , can you help?
5.6

Looking for the measured Ki of CN(C(=NC#N)Nc1ccc(C(F)(F)F)cc1)c1ccc2nc(S)sc2c1 , can you help?
2

Looking for the measured Ki of CCN(C(=NC#N)Nc1ccc(C(N)=O)cc1)c1ccc2nc(S)sc2c1 , can you help?
2.8

Looking for the measured Ki of CCCN(C(=NC#N)Nc1ccc(OC(F)(F)F)cc1)c1ccc2nc(S)sc2c1 , can you help?
67.1

Looking for the measured Ki of CCN(/C(=N/C#N)Nc1ccc(C(F)(F)F)cc1)c1ccc2nc(S)sc2c1 , can you help?
1.7
